Origin of the recorded values: patent US11981686B2

Target: SIRT6 enzyme (Homo sapiens, UniProt Q8N6T7)
Sequence (Q8N6T7 whole entry, species assumed): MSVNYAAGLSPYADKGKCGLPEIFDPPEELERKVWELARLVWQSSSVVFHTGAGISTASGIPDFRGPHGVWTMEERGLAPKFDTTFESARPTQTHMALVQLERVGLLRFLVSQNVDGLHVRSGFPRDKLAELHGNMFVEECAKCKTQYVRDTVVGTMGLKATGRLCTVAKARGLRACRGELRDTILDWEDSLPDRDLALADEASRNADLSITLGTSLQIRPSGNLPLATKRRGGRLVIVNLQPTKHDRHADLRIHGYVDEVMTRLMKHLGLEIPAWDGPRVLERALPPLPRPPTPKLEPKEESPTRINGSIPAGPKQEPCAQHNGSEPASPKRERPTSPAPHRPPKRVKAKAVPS
Assay: Measurement of deacetylation activity (SIRT6, AlphaLISA, H3K9(Ac) peptide)
Type: biochemical
Conditions: SIRT6 25 ng/mL, H3K9(Ac) biotin peptide 2 nM, NAD 10 μM, room temperature 30 minutes, duplicate
Readout Label: EC150 (the concentration of the compound showing a relative enzyme activity of 150%) (μm)
Respond numerically; units are μm and should not be typed.

1) CC(=O)N1CC[C@@H](NC(=O)Nc2nc3c(s2)[C@@H]2COC[C@H](C3)N2c2ncc(-c3cccc(OC(F)F)n3)o2)C1    0.16
2) O=C(Nc1nc2c(s1)CN(c1nc(C3(C(F)(F)F)CC3)no1)CC2)N[C@H]1C[C@H](O)C1    1.3
3) CNC(=O)Nc1nc2c(s1)C1COCC(C2)N1c1ncc(-c2cccc(C(F)F)c2)o1 (centres unmarked)    0.94
4) O=C(Nc1nc2c(s1)CN(c1nc(C3CCC(F)(F)CC3)no1)CC2)NC1(CO)CC1    2
5) CNC(=O)Nc1nc2c(s1)CN(c1nnc(C(F)(F)F)o1)CC2    1.6

Please look at O=C(NCC1(O)CC1)Nc1nc2c(s1)CN(c1nc(C3CCC(F)(F)CC3)no1)CC2 and tell me its recorded EC150 (the concentration of the compound showing a relative enzyme activity of 150%) on SIRT6 enzyme (Homo sapiens, UniProt Q8N6T7). 1.6

Tell me EC150 (the concentration of the compound showing a relative enzyme activity of 150%) of C[C@@H](CO)NC(=O)Nc1nc2c(s1)[C@@H]1COC[C@H](C2)N1c1ncc(-c2cccc(OC(F)F)n2)o1 when tested on SIRT6 enzyme (Homo sapiens, UniProt Q8N6T7). 0.66

Report value only: EC150 (the concentration of the compound showing a relative enzyme activity of 150%), SIRT6 enzyme (Homo sapiens, UniProt Q8N6T7), CNC(=O)Nc1nc2c(s1)C1CN(C(=O)OC)CC(C2)N1c1nc(C23CC(C(F)F)(C2)C3)no1 (centres unmarked) 2.1
